Values compiled from the supplement of paper PMC12855868.

B1: library; numbered along this chain (parent)
chain: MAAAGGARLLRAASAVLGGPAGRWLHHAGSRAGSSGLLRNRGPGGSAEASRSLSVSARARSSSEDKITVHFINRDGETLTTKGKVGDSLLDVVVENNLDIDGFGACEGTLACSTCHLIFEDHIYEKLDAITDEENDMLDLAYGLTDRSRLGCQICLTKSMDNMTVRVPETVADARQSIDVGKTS

# Variants of: B1
# ASSAY_PROCEDURE: scaled log2 fold change in cell abundance, elesclomol vs control (0 = silent mean, 1 = nonsense mean) (scaled log2 ratio); higher = higher viability under elesclomol (loss of FDX1 cuproptosis function);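 note: variant abundance is its share of total variant reads in each endpoint sample, from next-generation sequencing of the integrated ORF PCR-amplified out of genomic DNA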
# CONDITION_INFO: with HEK293T FDX1 KO; elesclomol 40 nM; glucose 10 mM; 11 days
ASSAY_READOUT: scaled log2 fold change
Reply with the value as a number alone.

# count of solved cases: 4
[[record]]
changes = "E95H"
assay_readout = "scaled log2 fold change"
experimental_result = -0.636

[[record]]
changes = "D65M"
assay_readout = "scaled log2 fold change"
experimental_result = -0.318

[[record]]
changes = "G102F"
assay_readout = "scaled log2 fold change"
experimental_result = -0.289

[[record]]
changes = "G86R"
assay_readout = "scaled log2 fold change"
experimental_result = -0.218


Kindly review the next variant as well.
[Q] For the variant H27I , what scaled log2 fold change is on record?
[A] 1.23
